- procedure-details: Oral bioavailability in mouse at 30 mg/kg
- Format: ADME, organism-based
- condition-description: in vivo

{"smiles": "O=C(Nc1cc2sc(N3CCOCC3)nc2cc1N1CCOCC1)c1cnn2cccnc12", "bioavailability [%]": 12}

###

- procedure-details: Protein binding in rat plasma at 5 uM incubated for 4 hrs by LC-MS/MS analysis
- Format: ADME, cell-free
- condition-description: read-out: PPB (converted)

{"smiles": "C[C@]1(CO)Cc2cc(NC(=O)c3cnn4cccnc34)c(N3CCOCC3)cc2O1", "fraction unbound at 4 h, 5 µM": 0.21}

###

- measured-target: Interleukin-1 receptor-associated kinase 4 (Homo sapiens, UniProt Q9NWZ3)
- Sequence (Q9NWZ3 whole entry): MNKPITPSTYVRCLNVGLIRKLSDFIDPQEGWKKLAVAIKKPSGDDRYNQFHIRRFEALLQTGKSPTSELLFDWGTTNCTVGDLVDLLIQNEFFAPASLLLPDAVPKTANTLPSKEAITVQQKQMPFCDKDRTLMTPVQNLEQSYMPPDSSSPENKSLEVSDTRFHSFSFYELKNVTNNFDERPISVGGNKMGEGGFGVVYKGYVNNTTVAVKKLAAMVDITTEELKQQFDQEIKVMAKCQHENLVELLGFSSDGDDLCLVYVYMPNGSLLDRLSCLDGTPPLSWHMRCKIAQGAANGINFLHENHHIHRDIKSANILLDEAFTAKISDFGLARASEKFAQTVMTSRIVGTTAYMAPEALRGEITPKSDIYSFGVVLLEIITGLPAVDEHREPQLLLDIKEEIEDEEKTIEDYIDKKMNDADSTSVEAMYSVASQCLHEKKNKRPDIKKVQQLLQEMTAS
- procedure-details: Inhibition of IRAK4 in human THP1-Xblue-MD2-CD14 cells assessed as reduction in LPS-induced NFkappaB transcription by measuring alkaline phosphatase level preincubated for 1 hr followed by LPS stimulation and measured after 20 hrs by quanti-blue reagent based reporter assay

{"smiles": "CN(C)c1ccc2cc(NC(=O)c3cnn4cccnc34)c(N3CCCCC3)cc2n1", "measured-target": "Interleukin-1 receptor-associated kinase 4 (Homo sapiens, UniProt Q9NWZ3)", "IC50 (µM)": 0.098}
{"smiles": "NCC1CCN(c2cc3ncccc3cc2NC(=O)c2cnn3cccnc23)CC1", "measured-target": "Interleukin-1 receptor-associated kinase 4 (Homo sapiens, UniProt Q9NWZ3)", "IC50 (µM)": 0.041}
{"smiles": "CCn1c(N2CCOCC2)nc2cc(N3CCC(CO)CC3)c(NC(=O)c3cnn4cccnc34)cc21", "measured-target": "Interleukin-1 receptor-associated kinase 4 (Homo sapiens, UniProt Q9NWZ3)", "IC50 (µM)": 0.91}
{"smiles": "CC1(C)Cc2cc(NC(=O)c3cnn4cccnc34)c(N3CCCC3)cc2O1", "measured-target": "Interleukin-1 receptor-associated kinase 4 (Homo sapiens, UniProt Q9NWZ3)", "IC50 (µM)": 0.14}
{"smiles": "O=C(Nc1cc2sc(N3CCOCC3)nc2cc1N1CCC(CO)CC1)c1cnn2cccnc12", "measured-target": "Interleukin-1 receptor-associated kinase 4 (Homo sapiens, UniProt Q9NWZ3)", "IC50 (µM)": 0.008}

###

- procedure-details: Cmax in dog at 1 mg/kg, po
- Assay type: ADME, organism-based, Canis lupus familiaris
- Design: dose 1 mg/kg, route oral
- condition-description: in vivo

{"smiles": "C[C@]1(CO)Cc2cc(NC(=O)c3cnn4cccnc34)c(N3CCOCC3)cc2O1", "Cmax, nM": 200}

###

- procedure-details: Kinetic aqueous solubility of the compound in PBS buffer at pH 7.4 incubated for 24 hrs under shaking condition by LC-CLND assay
- Format: physicochemical
- condition-description: PBS buffer, pH 7.4; read-out: Kinetic_solubility

{"compound": "CC1(C)Cc2cc(NC(=O)c3cnn4cc(O)cnc34)c(N3CCOCC3)cc2O1", "unit-of-measurement": "µM", "solubility kinetic at 24 h": 3.1}
{"compound": "CC1(C)Cc2cc(NC(=O)c3cnn4cccnc34)c(N3CCNCC3)cc2O1", "unit-of-measurement": "µM", "solubility kinetic at 24 h": 110}
{"compound": "CNC(=O)CN1CCN(c2cc3c(cc2NC(=O)c2cnn4cccnc24)CC(C)(C)O3)CC1", "unit-of-measurement": "µM", "solubility kinetic at 24 h": 23}
{"compound": "O=C(Nc1cc2cccnc2cc1N1CCC(CO)CC1)c1cnn2cccnc12", "unit-of-measurement": "µM", "solubility kinetic at 24 h": 1}
{"compound": "CC(C)(O)[C@]1(C)Cc2cc(NC(=O)c3cnn4cccnc34)c(N3CCOCC3)cc2O1", "unit-of-measurement": "µM", "solubility kinetic at 24 h": 150}
{"compound": "CC1(C)Cc2cc(NC(=O)c3cnn4cc(CO)cnc34)c(N3CCOCC3)cc2O1", "unit-of-measurement": "µM", "solubility kinetic at 24 h": 15}
{"compound": "CC1(C)Cc2cc(NC(=O)c3cnn4cccnc34)c(N3CCN(CCO)CC3)cc2O1", "unit-of-measurement": "µM", "solubility kinetic at 24 h": 120}
{"compound": "CC1(C)Cc2cc(NC(=O)c3cnn4cccnc34)c(N3CCN(CC(N)=O)CC3)cc2O1", "unit-of-measurement": "µM", "solubility kinetic at 24 h": 10}
{"compound": "CC1(C)Cc2cc(NC(=O)c3cnn4cc(C(N)=O)cnc34)c(N3CCOCC3)cc2O1", "unit-of-measurement": "µM", "solubility kinetic at 24 h": 1}
{"compound": "C[C@@]1(CO)Cc2cc(NC(=O)c3cnn4cccnc34)c(N3CCOCC3)cc2O1", "unit-of-measurement": "µM", "solubility kinetic at 24 h": 10}
{"compound": "CC1(C)Cc2cc(NC(=O)c3cnn4cccnc34)c(N3CCOCC3)cc2O1", "unit-of-measurement": "µM", "solubility kinetic at 24 h": 1}
{"compound": "CC1(C)Cc2cc(NC(=O)c3cnn4cccnc34)c(N3CCC(C(O)C(F)(F)F)CC3)cc2O1 (centres undefined)", "unit-of-measurement": "µM", "solubility kinetic at 24 h": 1}
{"compound": "CC1(C)Cc2cc(NC(=O)c3cnn4cc(C5CC5)cnc34)c(N3CCOCC3)cc2O1", "unit-of-measurement": "µM", "solubility kinetic at 24 h": 1}
{"compound": "CN1CCC2(CC1)Cc1cc(NC(=O)c3cnn4cccnc34)c(N3CCOCC3)cc1O2", "unit-of-measurement": "µM", "solubility kinetic at 24 h": 130}
{"compound": "C[C@]1(CO)Cc2cc(NC(=O)c3cnn4cccnc34)c(N3CCOCC3)cc2O1", "unit-of-measurement": "µM", "solubility kinetic at 24 h": 10}
{"compound": "CC1(C)Cc2cc(NC(=O)c3cnn4cc(OC(F)F)cnc34)c(N3CCOCC3)cc2O1", "unit-of-measurement": "µM", "solubility kinetic at 24 h": 1}
{"compound": "CC1(C)Cc2cc(NC(=O)c3cnn4c(O)ccnc34)c(N3CCOCC3)cc2O1", "unit-of-measurement": "µM", "solubility kinetic at 24 h": 77}
{"compound": "CC1(C)Cc2cc(NC(=O)c3cnn4cc(C#N)cnc34)c(N3CCOCC3)cc2O1", "unit-of-measurement": "µM", "solubility kinetic at 24 h": 1}
{"compound": "CC1(C)Cc2cc(NC(=O)c3cnn4cccnc34)c(N3CCCC(O)CC3)cc2O1 (centres undefined)", "unit-of-measurement": "µM", "solubility kinetic at 24 h": 25}
{"compound": "NCC1CCN(c2cc3ncccc3cc2NC(=O)c2cnn3cccnc23)CC1", "unit-of-measurement": "µM", "solubility kinetic at 24 h": 22}
{"compound": "CC1(C)Cc2cc(NC(=O)c3cnn4cccnc34)c(N3CCCC3)cc2O1", "unit-of-measurement": "µM", "solubility kinetic at 24 h": 7.1}
{"compound": "CC1(C)Cc2cc(NC(=O)c3cnn4cccnc34)c(N3CCC(CO)CC3)cc2O1", "unit-of-measurement": "µM", "solubility kinetic at 24 h": 95}
{"compound": "CC1(C)Cc2cc(NC(=O)c3cnn4cc(C(F)F)cnc34)c(N3CCOCC3)cc2O1", "unit-of-measurement": "µM", "solubility kinetic at 24 h": 2.5}
{"compound": "CC1(C)Cc2cc(NC(=O)c3cnn4cccnc34)c(N3CCC(C(N)=O)CC3)cc2O1", "unit-of-measurement": "µM", "solubility kinetic at 24 h": 7.1}

###

- procedure-details: Volume of distribution at steady state in mouse at 1 mg/kg, iv
- Format: ADME, organism-based
- condition-description: in vivo, read-out: Vdss

{"smiles": "C[C@]1(CO)Cc2cc(NC(=O)c3cnn4cccnc34)c(N3CCOCC3)cc2O1", "Vd": "1.1 L/kg"}
{"smiles": "O=C(Nc1cc2sc(N3CCOCC3)nc2cc1N1CCOCC1)c1cnn2cccnc12", "Vd": "0.9 L/kg"}
{"smiles": "O=C(Nc1cc2sc(N3CCOCC3)nc2cc1N1CCC(CO)CC1)c1cnn2cccnc12", "Vd": "0.4 L/kg"}
{"smiles": "Cn1c(N2CCOCC2)nc2cc(N3CCC(CO)CC3)c(NC(=O)c3cnn4cccnc34)cc21", "Vd": "0.4 L/kg"}

###

Recorded measurements of fraction unbound at 4 h, 5 µM, one per entry
- procedure-details: Protein binding in mouse plasma at 5 uM incubated for 4 hrs by LC-MS/MS analysis
- Assay type: ADME, cell-free
- condition-description: read-out: PPB (converted)

{"smiles": "O=C(Nc1cc2sc(N3CCOCC3)nc2cc1N1CCC(CO)CC1)c1cnn2cccnc12", "fraction unbound at 4 h, 5 µM": 0.01}
{"smiles": "Cn1c(N2CCOCC2)nc2cc(N3CCC(CO)CC3)c(NC(=O)c3cnn4cccnc34)cc21", "fraction unbound at 4 h, 5 µM": 0.05}
{"smiles": "O=C(Nc1cc2sc(N3CCOCC3)nc2cc1N1CCOCC1)c1cnn2cccnc12", "fraction unbound at 4 h, 5 µM": 0.01}
{"smiles": "C[C@]1(CO)Cc2cc(NC(=O)c3cnn4cccnc34)c(N3CCOCC3)cc2O1", "fraction unbound at 4 h, 5 µM": 0.14}
